Assay: Cmax in CD-1 mouse measured at 5 mg/kg, po for 1 to 24 hrs by HPLC-MS/MS analysis
Type: ADME, organism-based
Details: in vivo, time 1-24 hrs
measured.endpoint: Cmax (µM)
Numbers only, in µM.

// returns reported Cmax for input "C[C@]1(O)C[C@@H](c2nc(-c3ccc4ccc(-c5ccccc5)nc4c3)c3c(N)nccn32)C1" 3.42

----------
Assay: AUC last in CD-1 mouse measured at 250 mg/kg, po for 1 to 24 hrs by HPLC-MS/MS analysis
Type: ADME, organism-based
Conditions: in vivo, time 1-24 hrs
measured.endpoint: AUC(0-t)
Numeric answer plus unit only.

// returns reported AUC(0-t) for input "C[C@]1(O)C[C@@H](c2nc(-c3ccc4ccc(-c5ccccc5)nc4c3)c3c(N)nccn32)C1" 317 µg·h/mL

----------
Test: AUC (0 to infinity) in Sprague-Dawley rat measured at 5 mg/kg, iv for 1 to 24 hrs by HPLC-MS/MS analysis
Assay type: ADME, organism-based
Conditions: in vivo, time 1-24 hrs
measured.endpoint: AUC(0-inf) (ng·h/mL)
One number for each entry, in ng·h/mL.

// returns reported AUC(0-inf) for input C[C@]1(O)C[C@@H](c2nc(-c3ccc4ccc(-c5ccccc5)nc4c3)c3c(N)nccn32)C1 [LINSITINIB] 23100

----------
Assay: Clearance in CD-1 mouse at 5 mg/kg, iv measured after 1 to 24 hrs by HPLC-MS/MS analysis
Assay type: ADME, organism-based
Conditions: in vivo, time 1-24 hrs
measured.endpoint: clearance (mL/min/kg)
One number for each entry, in mL/min/kg.

// returns reported clearance for input "Nc1nccn2c(C3CCC3)nc(-c3ccc4ccc(-c5ccccc5)nc4c3)c12" 90

----------
Experiment: Clearance in Sprague-Dawley rat at 5 mg/kg, iv measured after 1 to 24 hrs by HPLC-MS/MS analysis
Format: ADME, organism-based
Conditions: in vivo, time 1-24 hrs
measured.endpoint: clearance (mL/min/kg)
Numbers only, in mL/min/kg.

// returns reported clearance for input "CN1CCN([C@H]2C[C@@H](c3nc(-c4ccc5ccc(-c6ccccc6)nc5c4)c4c(N)nccn43)C2)CC1" 16

----------
Biological target: Insulin-like growth factor 1 receptor (Homo sapiens, UniProt P08069)
Sequence (P08069 31-736 limits assumed): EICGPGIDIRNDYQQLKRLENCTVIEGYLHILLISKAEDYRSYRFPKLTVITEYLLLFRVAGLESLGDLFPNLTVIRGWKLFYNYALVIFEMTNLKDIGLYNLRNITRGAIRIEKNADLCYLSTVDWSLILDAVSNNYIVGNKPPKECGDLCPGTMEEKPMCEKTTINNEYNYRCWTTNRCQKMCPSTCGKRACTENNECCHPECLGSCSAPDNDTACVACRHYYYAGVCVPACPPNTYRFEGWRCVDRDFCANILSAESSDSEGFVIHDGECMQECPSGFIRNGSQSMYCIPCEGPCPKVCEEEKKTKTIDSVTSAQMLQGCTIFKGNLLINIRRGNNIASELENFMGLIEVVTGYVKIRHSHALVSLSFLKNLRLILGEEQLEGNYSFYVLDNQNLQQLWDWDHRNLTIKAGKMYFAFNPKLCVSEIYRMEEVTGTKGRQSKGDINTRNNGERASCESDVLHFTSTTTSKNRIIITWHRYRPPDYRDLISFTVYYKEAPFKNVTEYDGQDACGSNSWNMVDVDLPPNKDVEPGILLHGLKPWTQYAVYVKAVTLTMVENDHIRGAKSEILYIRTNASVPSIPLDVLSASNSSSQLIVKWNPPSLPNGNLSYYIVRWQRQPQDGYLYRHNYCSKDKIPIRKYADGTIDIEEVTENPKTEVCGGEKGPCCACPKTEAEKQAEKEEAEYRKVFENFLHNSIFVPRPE
Sequence (P08069 741-1367 limits assumed): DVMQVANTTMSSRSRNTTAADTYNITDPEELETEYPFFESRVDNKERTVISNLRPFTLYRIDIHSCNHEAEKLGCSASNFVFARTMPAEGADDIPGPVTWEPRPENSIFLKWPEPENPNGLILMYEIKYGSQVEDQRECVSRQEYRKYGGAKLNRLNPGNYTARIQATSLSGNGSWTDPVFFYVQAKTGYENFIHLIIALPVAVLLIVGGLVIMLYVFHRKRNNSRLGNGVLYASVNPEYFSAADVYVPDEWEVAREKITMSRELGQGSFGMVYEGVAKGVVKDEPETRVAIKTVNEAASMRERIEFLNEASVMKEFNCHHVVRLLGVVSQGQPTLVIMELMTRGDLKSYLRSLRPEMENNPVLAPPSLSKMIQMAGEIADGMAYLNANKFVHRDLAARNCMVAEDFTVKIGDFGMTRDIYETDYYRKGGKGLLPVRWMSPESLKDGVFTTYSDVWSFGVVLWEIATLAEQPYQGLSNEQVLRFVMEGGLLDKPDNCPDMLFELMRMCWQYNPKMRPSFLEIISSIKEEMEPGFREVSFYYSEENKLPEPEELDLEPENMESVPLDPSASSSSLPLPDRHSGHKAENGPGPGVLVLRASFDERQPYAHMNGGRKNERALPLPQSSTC
Experiment: Inhibition of human recombinant IGF-1 receptor in presence of ATP by ELISA analysis
measured.endpoint: IC50 (µM)
One number for each entry, in µM.

// map "CN1CCN([C@H]2C[C@@H](c3nc(-c4ccc5ccc(-c6ccccc6)nc5c4)c4c(N)nccn43)C2)CC1" to recorded IC50 (system: Insulin-like growth factor 1 receptor (Homo sapiens, UniProt P08069)) 0.024

----------
Assay: Volume of distribution at steady state in CD-1 mouse measured at 5 mg/kg, iv for 1 to 24 hrs by HPLC-MS/MS analysis
Type: ADME, organism-based
Conditions: in vivo, time 1-24 hrs, read-out: Vdss
measured.endpoint: Vd
Numeric answer plus unit only.

// returns reported Vd for input "C[C@]1(O)C[C@@H](c2nc(-c3ccc4ccc(-c5ccccc5)nc4c3)c3c(N)nccn32)C1" 2.05 L/kg

----------
Test: AUC last in Beagle dog measured at 5 mg/kg, po for 1 to 24 hrs by HPLC-MS/MS analysis
Assay type: ADME, organism-based, Canis lupus familiaris
Details: in vivo, time 1-24 hrs
measured.endpoint: AUC(0-t) (ng·h/mL)
One number for each entry, in ng·h/mL.

// returns reported AUC(0-t) for input C[C@]1(O)C[C@@H](c2nc(-c3ccc4ccc(-c5ccccc5)nc4c3)c3c(N)nccn32)C1 [LINSITINIB] 1330

----------
Assay: AUC (0 to infinity) in CD-1 mouse at 50 mg/kg, po measured after 1 to 24 hrs by HPLC-MS/MS analysis
Format: ADME, organism-based
Details: in vivo, time 1-24 hrs
measured.endpoint: AUC(0-inf) (ng·h/mL)
One number for each entry, in ng·h/mL.

Nc1nccn2c1c(-c1ccc3ccc(-c4ccccc4)nc3c1)nc2[C@H]1CC[C@H](C(N)=O)CC1	52500

Turning now to a further record.
// returns reported AUC(0-inf) for input "Nc1nccn2c(C3CCC3)nc(-c3ccc4ccc(-c5ccccc5)nc4c3)c12" 5170

----------
Test: Clearance in CD-1 mouse at 10 mg/kg, iv measured after 1 to 24 hrs by HPLC-MS/MS analysis
Format: ADME, organism-based
Conditions: in vivo, time 1-24 hrs
measured.endpoint: clearance (mL/min/kg)
Numbers only, in mL/min/kg.

// returns reported clearance for input "CN1CCN([C@H]2C[C@@H](c3nc(-c4ccc5ccc(-c6ccccc6)nc5c4)c4c(N)nccn43)C2)CC1" 19

----------
Test: Volume of distribution at steady state in CD-1 mouse at 10 mg/kg, iv measured after 1 to 24 hrs by HPLC-MS/MS analysis
Type: ADME, organism-based
Settings: in vivo, time 1-24 hrs, read-out: Vdss
measured.endpoint: Vd (L/kg)
One number for each entry, in L/kg.

// returns reported Vd for input "CN1CCN([C@H]2C[C@@H](c3nc(-c4ccc5ccc(-c6ccccc6)nc5c4)c4c(N)nccn43)C2)CC1" 8

----------
Assay: Microsomal stability in rat liver microsomes assessed as extraction ratio in presence of NADPH for 0 to 40 mins by LC-MS/MS analysis
Type: ADME, Microsome
Conditions: time 0-40 min, read-out: ERH
measured.endpoint: hepatic extraction ratio
Give bare numbers.

// returns reported hepatic extraction ratio for input "CN1CCN([C@H]2C[C@@H](c3nc(-c4ccc5ccc(-c6ccccc6)nc5c4)c4c(N)nccn43)C2)CC1" 0.21

----------
Test: Cmax in CD-1 mouse measured at 25 mg/kg, po for 1 to 24 hrs by HPLC-MS/MS analysis
Assay type: ADME, organism-based
Settings: in vivo, time 1-24 hrs
measured.endpoint: Cmax (µM)
Numbers only, in µM.

// returns reported Cmax for input "C[C@]1(O)C[C@@H](c2nc(-c3ccc4ccc(-c5ccccc5)nc4c3)c3c(N)nccn32)C1" 16

----------
Experiment: Plasma concentration in Sprague-Dawley rat at 20 mg/kg, po measured after 24 hrs by HPLC-MS/MS analysis
Format: ADME, organism-based
measured.endpoint: concentration at 24 h (nM)
Numbers only, in nM.

// returns reported concentration at 24 h for input "CN1CCN([C@H]2C[C@@H](c3nc(-c4ccc5ccc(-c6ccccc6)nc5c4)c4c(N)nccn43)C2)CC1" 740

----------
Assay: Volume of distribution at steady state in CD-1 mouse at 5 mg/kg, iv measured after 1 to 24 hrs by HPLC-MS/MS analysis
Assay type: ADME, organism-based
Conditions: in vivo, time 1-24 hrs, read-out: Vdss
measured.endpoint: Vd
Numeric answer plus unit only.

// returns reported Vd for input "Nc1nccn2c(C3CCC3)nc(-c3ccc4ccc(-c5ccccc5)nc4c3)c12" 6.25 L/kg

----------
Test: AUC (0 to infinity) in Sprague-Dawley rat at 20 mg/kg, po measured after 1 to 24 hrs by HPLC-MS/MS analysis
Format: ADME, organism-based
Conditions: in vivo, time 1-24 hrs
measured.endpoint: AUC(0-inf) (ng·h/mL)
One number for each entry, in ng·h/mL.

// returns reported AUC(0-inf) for input "CN1CCN([C@H]2C[C@@H](c3nc(-c4ccc5ccc(-c6ccccc6)nc5c4)c4c(N)nccn43)C2)CC1" 28700

----------
Assay: Plasma concentration in CD-1 mouse measured at 75 mg/kg, po for 24 hrs by HPLC-MS/MS analysis
Type: ADME, organism-based
measured.endpoint: concentration at 24 h (nM)
Give bare numbers, in nM.

// returns reported concentration at 24 h for input "C[C@]1(O)C[C@@H](c2nc(-c3ccc4ccc(-c5ccccc5)nc4c3)c3c(N)nccn32)C1" 2920

----------
Assay: in vitro
Conditions: human, liver microsomes
Description: Microsomal stability in human liver microsomes assessed as extraction ratio in presence of NADPH for 0 to 40 mins by LC-MS/MS analysis
measured.endpoint: hepatic extraction ratio
Numbers only.

// returns reported hepatic extraction ratio for input "CN1CCN([C@H]2C[C@@H](c3nc(-c4ccc5ccc(-c6ccccc6)nc5c4)c4c(N)nccn43)C2)CC1" 0.59

----------
Assay: AUC (0 to infinity) in Beagle dog measured at 2.5 mg/kg, iv for 1 to 24 hrs by HPLC-MS/MS analysis
Assay type: ADME, organism-based, Canis lupus familiaris
Details: in vivo, time 1-24 hrs
measured.endpoint: AUC(0-inf)

// returns reported AUC(0-inf) for input "C[C@]1(O)C[C@@H](c2nc(-c3ccc4ccc(-c5ccccc5)nc4c3)c3c(N)nccn32)C1" 1070 ng·h/mL

----------
Assay: Volume of distribution at steady state in Sprague-Dawley rat at 5 mg/kg, iv measured after 1 to 24 hrs by HPLC-MS/MS analysis
Assay type: ADME, organism-based
Settings: in vivo, time 1-24 hrs, read-out: Vdss
measured.endpoint: Vd (L/kg)
Give bare numbers, in L/kg.

// returns reported Vd for input "CN1CCN([C@H]2C[C@@H](c3nc(-c4ccc5ccc(-c6ccccc6)nc5c4)c4c(N)nccn43)C2)CC1" 21

----------
Experiment: Oral bioavailability in CD-1 mouse administered at 25 mg/kg measured after 1 to 24 hrs by HPLC-MS/MS analysis
Assay type: ADME, organism-based
Details: in vivo, time 1-24 hrs
measured.endpoint: bioavailability (%)
Give bare numbers, in %.

// returns reported bioavailability for input "CN1CCN([C@H]2C[C@@H](c3nc(-c4ccc5ccc(-c6ccccc6)nc5c4)c4c(N)nccn43)C2)CC1" 100

Measured values drawn from ChEMBL document CHEMBL5661980 for this set.
